Field: IC50. Provide a value for each of the compounds that follow.
# EXPERIMENTAL_SYSTEM: farnesyl protein transferase (FPT), H-ras (Homo sapiens, UniProt P49354+P49356)
# PROTOCOL_SUMMARY: FPT IC50 (H-ras), inhibition of farnesyl protein transferase, in vitro enzyme assay
# Assay type: biochemical
# RECORDED_CONDITIONS: Table 3; H-ras; read-out: FPT IC50 (nM) (H-ras)
Give bare numbers, in nM.

[
  {
    "COMPOUND": "CC(C)(C)OC(=O)NCC(=O)N1CCC(CC(=O)N2CCC([C@H]3c4ncc(Br)cc4CCc4cc(Cl)cc(Br)c43)CC2)CC1 [Example 1]",
    "UNITS_SYMBOL": "nM",
    "NUMBER": 12.3
  },
  {
    "COMPOUND": "C[C@@H](NC(=O)OC(C)(C)C)C(=O)N1CCC(CC(=O)N2CCC([C@H]3c4ncc(Br)cc4CCc4cc(Cl)cc(Br)c43)CC2)CC1 [Example 5]",
    "UNITS_SYMBOL": "nM",
    "NUMBER": 8.4
  },
  {
    "COMPOUND": "C[C@H](NC(=O)OC(C)(C)C)C(=O)N1CCC(CC(=O)N2CCC([C@H]3c4ncc(Br)cc4CCc4cc(Cl)cc(Br)c43)CC2)CC1 [Example 3]",
    "UNITS_SYMBOL": "nM",
    "NUMBER": 6.3
  },
  {
    "COMPOUND": "CC(C)(C)OC(=O)N[C@@H](Cc1c[nH]cn1)C(=O)N1CCC(CC(=O)N2CCC([C@H]3c4ncc(Br)cc4CCc4cc(Cl)cc(Br)c43)CC2)CC1 [Example 8]",
    "UNITS_SYMBOL": "nM",
    "NUMBER": 7.4
  },
  {
    "COMPOUND": "CN(C)CCC(=O)N1CCC(CC(=O)N2CCC(C3c4ncc(Br)cc4CCc4cc(Cl)cc(Br)c43)CC2)CC1 (single isomer, unassigned; (+)) [Example 20]",
    "UNITS_SYMBOL": "nM",
    "NUMBER": 5.8
  }
]

Respectfully, I request IC50 for each entry included below.
1. CC(C)(C)OC(=O)N[C@@H](Cc1ccccc1)C(=O)N1CCC(CC(=O)N2CCC([C@H]3c4ncc(Br)cc4CCc4cc(Cl)cc(Br)c43)CC2)CC1 [Example 7]
2. O=C(CC1CCN(C(=O)[C@@H]2CCCN2)CC1)N1CCC([C@H]2c3ncc(Br)cc3CCc3cc(Cl)cc(Br)c32)CC1 [Example 12]
3. CC(C)(C)OC(=O)N1CCC[C@H]1C(=O)N1CCC(CC(=O)N2CCC([C@H]3c4ncc(Br)cc4CCc4cc(Cl)cc(Br)c43)CC2)CC1 [Example 9]
4. N[C@@H](Cc1ccccc1)C(=O)N1CCC(CC(=O)N2CCC([C@H]3c4ncc(Br)cc4CCc4cc(Cl)cc(Br)c43)CC2)CC1 [Example 10]
5. O=C(CC1CCN(C(=O)CN2CCS(=O)(=O)CC2)CC1)N1CCC(C2c3ncc(Br)cc3CCc3cc(Cl)cc(Br)c32)CC1 (single isomer, unassigned; (+)) [Example 23]

1: 31.7; 2: 4.4; 3: 11.6; 4: 8.3; 5: 2.7
